// data source = patent US20110086806A1

Target: T1, recombinant human IL-23R/Fc chimera (R&D Systems) (human, UniProt Q5VWK5 24-355)
T1 construct: Bought; also called rhIL23RFc
T1 sequence (looked up): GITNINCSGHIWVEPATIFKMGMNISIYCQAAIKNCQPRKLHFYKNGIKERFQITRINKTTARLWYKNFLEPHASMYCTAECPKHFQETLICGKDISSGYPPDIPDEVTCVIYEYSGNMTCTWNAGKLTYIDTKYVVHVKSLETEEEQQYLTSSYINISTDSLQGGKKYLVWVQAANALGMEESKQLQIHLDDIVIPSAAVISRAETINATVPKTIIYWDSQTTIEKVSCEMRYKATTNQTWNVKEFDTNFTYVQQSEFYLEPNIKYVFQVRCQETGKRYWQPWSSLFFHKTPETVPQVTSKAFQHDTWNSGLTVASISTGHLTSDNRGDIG
Assay: competition ELISA vs IL-23
Criterion: Ratio IC50 to 056-53.H4E IC50 strictly less than 4. Met: criterion met. Not met: criterion not met.

Example entries begin here.
| Binder | Class assignment |
| --- | --- |
| 105-59-3A5 ATRIMER complex (designed binder, Homotrimer of three identical chains (ATRIMER complex); one chain is given., not shown: C-terminal tag: His/Myc (pANA4) or HA-StrepII (pANA10)) EPPTQKPKKIVNAKKDVVNTKMFEELKSRLDTLAQEVALLKEQQALQTVCLKGTKVHMKCFLAFTQTKTFHEASEDCISRGGTLSTPQTGSENDALYEYLRQSVGNEAEIWLGLNGSLLTNTWVDMTGARIAYKNWETEITAQPDGGFGVFGENCAVLSGAANGKWFDKRCRDQLPYICQFGIV | criterion met |
| 105-08-2C8 ATRIMER complex (designed binder) EPPTQKPKKIVNAKKDVVNTKMFEELKSRLDTLAQEVALLKEQQALQTVCLKGTKVHMKCFLAFTQTKTFHEASEDCISRGGTLSTPQTGSENDALYEYLRQSVGNEAEIWLGLNGSWLTDTWVDMTGARIAYKNWETEITAQPDGGWGYFGENCAVLSGAANGKWFDKRCRDQLPYICQFGIV | criterion not met |
| 101-54-4B6 ATRIMER complex (designed binder) EPPTQKPKKIVNAKKDVVNTKMFEELKSRLDTLAQEVALLKEQQALQTVCLKGTKVHMKCFLAFTQTKTFHEASEDCISRGGTLSTPQTGSENDALYEYLRQSVGNEAEIWLGLNGSALTNTWVDMTGARIAYKNWEPPGPHHPMGGFGVFGENCAVLSGAANGKWFDKRCRDQLPYICQFGIV | criterion met |
| 105-20-1A6 ATRIMER complex (designed binder) EPPTQKPKKIVNAKKDVVNTKMFEELKSRLDTLAQEVALLKEQQALQTVCLKGTKVHMKCFLAFTQTKTFHEASEDCISRGGTLSTPQTGSENDALYEYLRQSVGNEAEIWLGLNGSAKTGTWVDMTGARIAYKNWETEITAQPDGGWGYFGENCAVLSGAANGKWFDKRCRDQLPYICQFGIV | criterion not met |
| 105-08-2G1 ATRIMER complex (designed binder) EPPTQKPKKIVNAKKDVVNTKMFEELKSRLDTLAQEVALLKEQQALQTVCLKGTKVHMKCFLAFTQTKTFHEASEDCISRGGTLSTPQTGSENDALYEYLRQSVGNEAEIWLGLNGSPKTHTWVDMTGARIAYKNWETEITAQPDGGFGYFGENCAVLSGAANGKWFDKRCRDQLPYICQFGIV | criterion met |

Here is the next item to consider.
Record 105-20-2F10 ATRIMER complex (designed binder, not shown: C-terminal tag: His/Myc (pANA4) or HA-StrepII (pANA10)) EPPTQKPKKIVNAKKDVVNTKMFEELKSRLDTLAQEVALLKEQQALQTVCLKGTKVHMKCFLAFTQTKTFHEASEDCISRGGTLSTPQTGSENDALYEYLRQSVGNEAEIWLGLNGSARTDTWVDMTGARIAYKNWETEITAQPDGGFGYFGENCAVLSGAANGKWFDKRCRDQLPYICQFGIV : is its Ratio IC50 to 056-53.H4E IC50 strictly below 4?
criterion not met
